Listed next: entries and their corresponding IC50.
experiment: Antiplatelet activity against pig platelet assessed as inhibition of ADP-induced platelet aggregation by spectrophotometry; type: functional, cell-based; settings: Sus scrofa
// note: answer is a bare numeric in nM

Illustrative cases are given below, each with its answer.
{"compound": "CC1(C)N2Cc3ccccc3C[C@H]2C(=O)N1[C@@H](CC(N)=O)C(=O)O", "unit-spec": "nM", "IC50": 283}
{"compound": "CC1(C)N2Cc3ccccc3C[C@H]2C(=O)N1[C@@H](CCC(N)=O)C(=O)O", "unit-spec": "nM", "IC50": 182}
{"compound": "CC(C)C[C@@H](C(=O)O)N1C(=O)[C@@H]2Cc3ccccc3CN2C1(C)C", "unit-spec": "nM", "IC50": 171}

Lab note: CC1(C)N2Cc3ccccc3C[C@H]2C(=O)N1[C@@H](Cc1ccc(O)cc1)C(=O)O gave IC50 of 273

// IC50 value for CC(O)[C@@H](C(=O)O)N1C(=O)[C@@H]2Cc3ccccc3CN2C1(C)C (some centres undefined) : 207

Record CC1(C)N2Cc3ccccc3C[C@H]2C(=O)N1[C@@H](Cc1ccccc1)C(=O)O , field IC50: 163

IC50 recorded for this compound, CC1(C)N2Cc3ccccc3C[C@H]2C(=O)N1[C@@H](CC(=O)O)C(=O)O , is 294

According to the records, this compound C[C@@H](C(=O)O)N1C(=O)[C@@H]2Cc3ccccc3CN2C1(C)C displays IC50 of 200

Recorded IC50 (compound O=C(O)[C@H](Cc1cc2ccccc2[nH]1)NC(=O)[C@@H]1Cc2ccccc2CN1 ): 120
